test: Pharmacokinetic assay in mice; format: in vivo; details: male, ICR, mouse, plasma, oral intragastric administration, 10 mg/kg
MEASURED QUANTITY: half-life (min)

>>> print(df.to_string())
                                smiles_code  units_text  number
0  O=C(Nc1ccc[n+]([O-])c1)c1cc(Cl)c(C(F)(F)F)cc1Oc1ccc(F)c2c1OC(F)(F)O2         min     152
1  O=C(Nc1cnc[n+]([O-])c1)c1c(Oc2ccc(OC(F)(F)F)cc2)cc(Cl)c(Cl)c1F         min     120
2  O=C(Nc1ccc[n+]([O-])c1)c1cc(Cl)c(C(F)(F)F)cc1Oc1ccc(SC(F)(F)F)cc1         min    2040
3  O=C(Nc1ccc[n+]([O-])c1)c1cc(Cl)c(Cl)cc1Oc1ccc(F)c2c1OC(F)(F)O2         min     173
4  COc1cc(OC(F)(F)F)ccc1Oc1cc(Cl)c(Cl)cc1C(=O)Nc1cnc[n+]([O-])c1         min    73.2
5  [2H]C([2H])([2H])Oc1cc(F)ccc1Oc1cc(Cl)c(Cl)cc1C(=O)Nc1cnc[n+]([O-])c1         min    79.2
6  O=C(Nc1cnc[n+]([O-])c1)c1c(Oc2ccc(OC(F)(F)F)cc2)ccc(C(F)(F)F)c1F         min     172
